assay_system: KRas G12V (Homo sapiens, UniProt P01116, G12V)
Sequence (P01116 1-169 isoform P01116-2 G12V): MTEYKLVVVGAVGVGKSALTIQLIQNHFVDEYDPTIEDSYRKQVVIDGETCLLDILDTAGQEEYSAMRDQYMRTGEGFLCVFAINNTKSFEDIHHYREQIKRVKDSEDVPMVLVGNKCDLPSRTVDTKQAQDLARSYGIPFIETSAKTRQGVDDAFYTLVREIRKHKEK
test_name: biochemical
pIC50: −log10 of the molar value.

molecule: Cc1cccc2cccc(-c3ncc4c(N5CCCC6(CC(=O)N6)C5)nc(OCC56CCCN5CCC6)nc4c3F)c12 (stereo not shown)
assay_system: KRas G12V (Homo sapiens, UniProt P01116, G12V)
relational_operator: =
pIC50: 6.62
//
molecule: CCc1c(F)ccc2cc(O)cc(-c3ncc4c(NC[C@H]5COC[C@H]5O)nc(OC[C@@]56CCCN5C[C@H](F)C6)nc4c3F)c12 (single isomer, unassigned)
assay_system: KRas G12V (Homo sapiens, UniProt P01116, G12V)
relational_operator: =
pIC50: 7.82
//
molecule: CCc1c(F)ccc2cc(O)cc(-c3ncc4c(N5CCCn6nc(C(=O)N(C)CC)cc6C5)nc(OC[C@@]56CCCN5C[C@H](F)C6)nc4c3F)c12
assay_system: KRas G12V (Homo sapiens, UniProt P01116, G12V)
relational_operator: ≥
pIC50: 8.70
//
molecule: C#Cc1c(F)ccc2cc(O)cc(-c3ncc4c(N5CC6CC(O)CC5C6)nc(OC[C@@]56CCCN5C[C@H](F)C6)nc4c3F)c12 (stereo partly shown)
assay_system: KRas G12V (Homo sapiens, UniProt P01116, G12V)
relational_operator: ≥
pIC50: 8.70
//
molecule: CCc1c(F)ccc2cc(O)cc(-c3ncc4c(N5CCC[C@@H](O)[C@@H]5C)nc(OC[C@@]56CCCN5C[C@H](F)C6)nc4c3F)c12
assay_system: KRas G12V (Homo sapiens, UniProt P01116, G12V)
relational_operator: =
pIC50: 8.05
//
molecule: C#Cc1cccc2cccc(-c3ncc4c(N5CCCC(C)(O)C5)nc(OCC56CCCN5CCC6)nc4c3F)c12 (stereo not shown)
assay_system: KRas G12V (Homo sapiens, UniProt P01116, G12V)
relational_operator: =
pIC50: 6.67
//
molecule: CCc1c(F)ccc2cc(O)cc(-c3ncc4c(N5CCC[C@@](C)(O)C5)nc(OCC5(CN6CCOCC6)CC5)nc4c3F)c12
assay_system: KRas G12V (Homo sapiens, UniProt P01116, G12V)
relational_operator: ≥
pIC50: 8.70
//
molecule: CCc1c(F)ccc2cc(O)cc(-c3ncc4c(N5CCC[C@@](C)(O)C5)nc(OC[C@@]56CCCN5[C@H](COC(=O)N5CCOCC5)CC6)nc4c3F)c12
assay_system: KRas G12V (Homo sapiens, UniProt P01116, G12V)
relational_operator: ≥
pIC50: 8.70
//
molecule: CCc1c(F)ccc2cc(O)cc(-c3ncc4c(N5C[C@H](O)CC[C@@H](O)C5)nc(OC[C@@]56CCCN5C[C@H](F)C6)nc4c3F)c12
assay_system: KRas G12V (Homo sapiens, UniProt P01116, G12V)
relational_operator: ≥
pIC50: 8.70
//
molecule: CCc1cccc2cccc(-c3ncc4c(NCc5c[nH]c6ncccc56)nc(OCC56CCCN5CCC6)nc4c3F)c12
assay_system: KRas G12V (Homo sapiens, UniProt P01116, G12V)
relational_operator: =
pIC50: 8.10
//
molecule: Fc1c(-c2cccc3cccc(F)c23)ncc2c(N3CCCn4nccc4C3)nc(OCC34CCCN3CCC4)nc12
assay_system: KRas G12V (Homo sapiens, UniProt P01116, G12V)
relational_operator: =
pIC50: 4.93
//
molecule: CC1(C)CCCN(c2nc(OCC34CCCN3CCC4)nc3c(F)c(-c4cccc5cccc(F)c45)ncc23)C1
assay_system: KRas G12V (Homo sapiens, UniProt P01116, G12V)
relational_operator: =
pIC50: 4.31
//
molecule: CCc1c(F)ccc2cc(O)cc(-c3ncc4c(NCC5CC(=O)NC5=O)nc(OC[C@@]56CCCN5C[C@H](F)C6)nc4c3F)c12 (stereo partly shown)
assay_system: KRas G12V (Homo sapiens, UniProt P01116, G12V)
relational_operator: ≥
pIC50: 8.70
//
molecule: Fc1c(-c2cccc3cccc(F)c23)ncc2c(OCCCc3cccnc3)nc(OCC34CCCN3CCC4)nc12
assay_system: KRas G12V (Homo sapiens, UniProt P01116, G12V)
relational_operator: =
pIC50: 5.21
//
molecule: CCc1c(F)ccc2cc(O)cc(-c3ncc4c(N5C[C@H](O)CC[C@H](O)C5)nc(OC[C@@]56CCCN5C[C@H](F)C6)nc4c3F)c12
assay_system: KRas G12V (Homo sapiens, UniProt P01116, G12V)
relational_operator: =
pIC50: 8.40
//
molecule: CCc1c(F)ccc2cc(O)cc(-c3ncc4c(N5C[C@@H]6C(CO)NC(=O)[C@@H]6C5)nc(OC[C@@]56CCCN5C[C@H](F)C6)nc4c3F)c12 (stereo in doubt)
assay_system: KRas G12V (Homo sapiens, UniProt P01116, G12V)
relational_operator: =
pIC50: 7.57
//
molecule: O=C1CC2(CCCN(c3nc(OCC45CCCN4CCC5)nc4c(F)c(-c5cccc6cccc(Cl)c56)ncc34)C2)CN1 (stereo not shown)
assay_system: KRas G12V (Homo sapiens, UniProt P01116, G12V)
relational_operator: =
pIC50: 6.00
//
molecule: O=C1NC[C@]2(CCCN(c3nc(OC[C@@]45CCCN4C[C@H](F)C5)nc4c(F)c(-c5cc(O)cc6ccc(F)c(Cl)c56)ncc34)C2)N1
assay_system: KRas G12V (Homo sapiens, UniProt P01116, G12V)
relational_operator: =
pIC50: 7.40
//
molecule: CCc1c(F)ccc2cc(O)cc(-c3ncc4c(N5CCC[C@@](C)(O)C5)nc(OC[C@]56CCCN5[C@H](CO)CC6)nc4c3F)c12
assay_system: KRas G12V (Homo sapiens, UniProt P01116, G12V)
relational_operator: ≥
pIC50: 8.70
//
molecule: CCc1c(F)ccc2cc(O)cc(-c3ncc4c(N5CCC[C@@](C)(O)C5)nc(OCC56CCCN5CCC6)nc4c3F)c12
assay_system: KRas G12V (Homo sapiens, UniProt P01116, G12V)
relational_operator: ≥
pIC50: 8.70
//
molecule: Nc1cc2n(n1)CCCN(c1nc(OC[C@@]34CCCN3C[C@H](F)C4)nc3c(F)c(-c4cc(O)cc5ccc(F)c(Br)c45)ncc13)C2
assay_system: KRas G12V (Homo sapiens, UniProt P01116, G12V)
relational_operator: ≥
pIC50: 8.70
//
molecule: CCc1c(F)ccc2cc(O)cc(-c3ncc4c(Nc5ccon5)nc(OC[C@@]56CCCN5C[C@H](F)C6)nc4c3F)c12
assay_system: KRas G12V (Homo sapiens, UniProt P01116, G12V)
relational_operator: =
pIC50: 8.10
//
molecule: CCc1c(F)ccc2cc(O)cc(-c3ncc4c(N5CCCC6(CSC6)C5)nc(OC[C@@]56CCCN5C[C@H](F)C6)nc4c3F)c12
assay_system: KRas G12V (Homo sapiens, UniProt P01116, G12V)
relational_operator: ≥
pIC50: 8.70
//
molecule: O=S1(=O)NCC2(CCCN(c3nc(OCC45CCCN4CCC5)nc4c(F)c(-c5cccc6cccc(F)c56)ncc34)C2)N1 (stereo not shown)
assay_system: KRas G12V (Homo sapiens, UniProt P01116, G12V)
relational_operator: =
pIC50: 7.77
//
molecule: CCc1cccc2cccc(-c3ncc4c(N5CCCC(c6nc[nH]n6)C5)nc(OCC56CCCN5CCC6)nc4c3F)c12 (stereo not shown)
assay_system: KRas G12V (Homo sapiens, UniProt P01116, G12V)
relational_operator: =
pIC50: 6.02

* * *

assay_system: KRas G12V (Homo sapiens, UniProt P01116, G12V);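 note: KRas binding measured by TR-FRET displacement at room temperature, IC50 fitted from percent of control values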
test_name: biochemical
quantity: IC50 (nM)

compound: Fc1c(-c2cccc3cccc(F)c23)ncc2c(NCCCn3ccnn3)nc(OCC34CCCN3CCC4)nc12
units_symbol: nM
relational_operator: =
observed_result: 7530
//
compound: CCc1c(F)ccc2cc(O)cc(-c3ncc4c(NCC5CNC(=O)C5)nc(OC[C@@]56CCCN5C[C@H](F)C6)nc4c3F)c12 (stereo partly drawn)
units_symbol: nM
relational_operator: ≤
observed_result: 2
//
compound: Cc1cc2[nH]ncc2c(-c2ncc3c(N4CCOCC(C)(O)C4)nc(OCC45CCCN4CCC5)nc3c2F)c1C (stereo not drawn)
units_symbol: nM
relational_operator: =
observed_result: 390
//
compound: CCc1cccc2cc(O)c(F)c(-c3ncc4c(N5CCC[C@@](C)(O)C5)nc(OC[C@@]56CCCN5C[C@H](F)C6)nc4c3F)c12
units_symbol: nM
relational_operator: =
observed_result: 16
//
compound: CCc1c(F)ccc2cc(O)cc(-c3ncc4c(NCc5n[nH]cc5C(N)=O)nc(OC[C@@]56CCCN5C[C@H](F)C6)nc4c3F)c12
units_symbol: nM
relational_operator: ≤
observed_result: 2
//
compound: Fc1c(-c2cccc3cccc(F)c23)ncc2c(NCCCn3cnnn3)nc(OCC34CCCN3CCC4)nc12
units_symbol: nM
relational_operator: =
observed_result: 18000
//
compound: C#Cc1c(F)ccc2cc(O)cc(-c3ncc4c(N5CCCC6(C5)NC(=O)NC6=O)nc(OC[C@@]56CCCN5C[C@H](F)C6)nc4c3F)c12 (stereo partly drawn)
units_symbol: nM
relational_operator: ≤
observed_result: 2
//
compound: CC1(O)CCCN(c2nc(OCC34CCCN3CCC4)nc3c(F)c(-c4cccc5cccnc45)ncc23)C1 (stereo not drawn)
units_symbol: nM
relational_operator: =
observed_result: 44500
//
compound: Fc1c(-c2cccc3cccc(F)c23)ncc2c(N3CCCC4(CCC4)C3)nc(OCC34CCCN3CCC4)nc12
units_symbol: nM
relational_operator: =
observed_result: 7780
//
compound: CCc1c(F)ccc2cc(O)cc(-c3ncc4c(N5CCCn6nc(CO)cc6C5)nc(OC[C@@]56CCCN5C[C@H](F)C6)nc4c3F)c12
units_symbol: nM
relational_operator: =
observed_result: 3
//
compound: Fc1c(-c2cccc3cccc(F)c23)ncc2c(NCc3ccc4[nH]cnc4c3)nc(OCC34CCCN3CCC4)nc12
units_symbol: nM
relational_operator: =
observed_result: 1590
//
compound: Cc1c(F)ccc2cc(O)cc(-c3ncc4c(N5CCCC(CS(N)(=O)=O)C5)nc(OC[C@@]56CCCN5C[C@H](F)C6)nc4c3F)c12 (stereo partly drawn)
units_symbol: nM
relational_operator: ≤
observed_result: 2
//
compound: CCc1c(F)ccc2cc(O)cc(-c3ncc4c(N5CCC[C@]6(C5)C[C@](C)(O)C6)nc(OCC56CCCN5CCC6)nc4c3F)c12
units_symbol: nM
relational_operator: =
observed_result: 6
//
compound: Fc1c(-c2cccc3cccc(F)c23)ncc2c(N3CCCC4(CSC4)C3)nc(OCC34CCCN3CCC4)nc12
units_symbol: nM
relational_operator: =
observed_result: 1790
//
compound: CC1(O)CCCN(c2nc(OCC34CCCN3CCC4)nc3c(F)c(-c4cccc5sc(N)nc45)ncc23)C1 (stereo not drawn)
units_symbol: nM
relational_operator: =
observed_result: 11500
//
compound: CC1(O)CCCN(c2nc(OCC34CCCN3CCC4)nc3c(F)c(-c4cccc5cccc(C#N)c45)ncc23)C1 (stereo not drawn)
units_symbol: nM
relational_operator: =
observed_result: 3760
//
compound: C#Cc1cccc2cccc(-c3ncc4c(N5CCCC(CS(N)(=O)=O)C5)nc(OCC56CCCN5CCC6)nc4c3F)c12 (stereo not drawn)
units_symbol: nM
relational_operator: =
observed_result: 2680
//
compound: CCc1c(F)ccc2cc(O)cc(-c3ncc4c(N5CCC[C@@](C)(O)C5)nc(OC[C@@]56CCCN5[C@@H](COC(=O)N(C)C)CC6)nc4c3F)c12
units_symbol: nM
relational_operator: =
observed_result: 5
//
compound: NC(=O)CCNc1nc(OCC23CCCN2CCC3)nc2c(F)c(-c3cccc4cccc(F)c34)ncc12
units_symbol: nM
relational_operator: =
observed_result: 6240
//
compound: Fc1c(-c2cccc3cccc(F)c23)ncc2c(NCc3ncc4cc[nH]c4n3)nc(OCC34CCCN3CCC4)nc12
units_symbol: nM
relational_operator: =
observed_result: 1720
//
compound: Fc1c(-c2cccc3cccc(F)c23)ncc2c(N3C[C@@H]4CC[C@@H](C4)C3)nc(OCC34CCCN3CCC4)nc12
units_symbol: nM
relational_operator: =
observed_result: 4450
//
compound: CCc1c(F)ccc2cc(O)cc(-c3ncc4c(N5CCCCC5)nc(OC[C@@]56CCCN5C[C@H](O)C6)nc4c3F)c12
units_symbol: nM
relational_operator: ≤
observed_result: 2
//
compound: O=C1CC2(CCCN(c3nc(OCC45CCCN4CCC5)nc4c(F)c(-c5cccc6cccc(CF)c56)ncc34)C2)N1 (stereo not drawn)
units_symbol: nM
relational_operator: =
observed_result: 2310
//
compound: Oc1cc(-c2ncc3c(N4CCC[C@]5(C4)C[C@H](O)C5)nc(OC[C@@]45CCCN4C[C@H](F)C5)nc3c2F)c2c(F)c(F)ccc2c1 (single isomer, unassigned)
units_symbol: nM
relational_operator: ≤
observed_result: 2
//
compound: OC1CC2CC(C1)N(c1nc(OCC34CCCN3CCC4)nc3c(F)c(-c4cccc5cccc(F)c45)ncc13)C2 (stereo not drawn)
units_symbol: nM
relational_operator: =
observed_result: 3150
//
compound: CC1(O)CCCN(c2nc(OCC34CCCN3CCC4)nc3c(F)c(-c4cc(O)ccc4F)ncc23)C1 (stereo not drawn)
units_symbol: nM
relational_operator: =
observed_result: 4440
//
compound: Cc1cccc2cccc(-c3ncc4c(N5CCCC(c6nc[nH]n6)C5)nc(OCC56CCCN5CCC6)nc4c3F)c12 (stereo not drawn)
units_symbol: nM
relational_operator: =
observed_result: 5150
